Tested on: Plasmodium berghei
Assay: Screen against P. berghei liver stage (PbLuc), transformed with Luciferase, at 2uM
Assay type: functional, HepG2
Conditions: tested at 2 uM
Among all 68,000 compounds or so, about 2,700 (4%) showed an effect of 50% or more. The list comes from a sample in which strong results are over-represented; it also holds close analogues and randomly drawn compounds.
readout_kind: INHIBITION (%)
Numbers only, in %.

compound	readout_kind	units_symbol	numeric_value
Clc1cccc(C2CCN(c3ncnc4c3CCNC4)C2)c1 (centres undefined)	INHIBITION	%	36.79
CC(=O)N(C)c1nc(CN2CCCC2Cn2nc(C)cc2C)cs1 (centres undefined)	INHIBITION	%	-43.47
CN(Cc1ccncc1)C1COC2(CCN(Cc3cccs3)CC2)C1 (centres undefined)	INHIBITION	%	-3.11
COCCn1cnc(-c2cc(C(=O)NC(C)C)c3ccccn23)c1	INHIBITION	%	1.48
O=C1CN(C(=O)CN(CC2CCC2)CC(F)(F)F)CCN1	INHIBITION	%	19.92

The following compounds each have a reported value; give each one's INHIBITION.
1. CN1[C@@H]2CC[C@H]1CN(C(=O)CCc1csc(N)n1)CC2
2. COC(CNC(=O)c1ccc(NC(C)=O)cc1)c1cccc(Cl)c1 (centres undefined)
3. Cc1cc(CCC(=O)N2CCOCC2)ccc1Br
4. CC(CO)Nc1ccc(-c2nc(Cc3ccc(F)cc3)no2)cn1 (centres undefined)

Result string:
41.86
-8.34
33.64
57.75

The following compounds each have a reported value; give each one's INHIBITION.
1. Cc1cncc(NC(=O)c2ccc(CN3CC[C@H](O)C3)cc2)c1
2. CCOc1cc(F)ccc1NC(=O)NCC(c1cnn(C)c1)N(C)C (centres undefined)
3. Cn1cc(CN2CCn3cc(CNC(=O)c4cccn4C)nc3C2)cn1
4. CC(C)(C)c1nc(CN2CCCC2Cn2cncn2)no1 (centres undefined)
5. CCOC(=O)CNC(=O)N1CCOC(Cc2ccc(OC)cc2)C1 (centres undefined)
6. CN(Cc1cccnc1)[C@@H]1CN(C(=O)c2ccno2)[C@@H]2CCCO[C@H]12
7. CC(=O)c1ccc(F)cc1-c1cc(NCCO)nc2[nH]ccc12

Result string:
1: 42.48; 2: -24.88; 3: 16.22; 4: 45.83; 5: 55.66; 6: -7.88; 7: 6.85

The following compounds each have a reported value; give each one's INHIBITION.
1. CCn1cc(S(=O)(=O)NCC(OC)c2cccc(Cl)c2)cn1 (centres undefined)
2. CC(=O)c1cccc(NS(=O)(=O)c2cc(C)c(C(=O)O)s2)c1
3. CC(C)NC(=O)N1C[C@@H](F)[C@@H](OCc2nc3ccccc3o2)C1
4. CCOCc1ccccc1NC(=O)NCC(c1cnn(C)c1)N(C)C (centres undefined)

Result string:
1. 31.78
2. -18.41
3. 16.47
4. 18.54

The following compounds each have a reported value; give each one's INHIBITION.
1. Cc1nn(C)cc1CNCc1ccc(N(C)C)cc1
2. CCOC(=O)Cn1nnnc1-c1ccccc1
3. CCOC(=O)CCNC(=O)N1CCOC(Cc2cccc(OC)c2)C1 (centres undefined)
4. CCCC(=O)NCC(=O)NC(c1ccc(Cl)cc1)C(F)(F)F (centres undefined)
5. COC(=O)c1ccc(CNCc2cn(C)nc2C)cc1
6. CN(Cc1ccncc1)C1COC2(CCN(Cc3ccccn3)CC2)C1 (centres undefined)

Result string:
1. 8.09
2. 23.9
3. 25.37
4. 28.25
5. 14.26
6. 23.59

The following compounds each have a reported value; give each one's INHIBITION.
1. CS(=O)(=O)N1CCC2(CC1)COC(COc1cccnc1)C2 (centres undefined)
2. COCCc1noc(CN2C(=O)OC[C@@H]2C(C)C)n1
3. COC1COC2(CCN(Cc3ccc4c(c3)OCO4)CC2)C1 (centres undefined)

Result string:
1: 19.91; 2: -7.66; 3: 22.16

* * *

Would you mind telling me the reported INHIBITION of each entry?
Test system: Plasmodium berghei
Test: Screen against P. berghei liver stage (PbLuc), transformed with Luciferase, at 2uM
Format: functional, HepG2
Conditions: tested at 2 uM
In all, about 68,000 compounds went through this assay and about 2,700 (4%) showed an effect of 50% or more. Shown is part of a subset that was picked to be rich in strong results.
Answers are plain numbers, in %.

compound	units_symbol	INHIBITION
O=C(Nc1ccc2c(c1)OCO2)N1CCN(CCn2ccnc2)CC1	%	58.59

The following compounds each have a reported value; give each one's INHIBITION.
1. CCc1nc(CNC(C)(CO)C2CCCCC2)no1 (configuration not stated)
2. O=C(NCCn1ccnc1)N1CCN(Cc2cccs2)CC1
3. O=C(c1ccc(-n2cnnc2)cc1Cl)N1CCCC(O)(CO)CC1 (configuration not stated)
4. CC(NC(=O)N(C)Cc1cccc(OC(F)F)c1)c1nncn1C (configuration not stated)

Result string:
17.89
-68.26
58.57
59.03

The following compounds each have a reported value; give each one's INHIBITION.
1. COc1cccc(CC(=O)N2CCc3ncnc(NCCO)c3CC2)c1
2. Cc1ccc(C(=O)N2CCOCC2)cc1NCc1ccsc1
3. O=C(C1CCCO1)N1CCc2ncnc(NC3CCC3)c2CC1 (configuration not stated)
4. CC(Cn1ccnc1)NC(=O)N1CCN(Cc2cccnc2)CC1 (configuration not stated)
5. O=C(NCC1CCCCO1)c1ccc(-c2ccco2)[nH]c1=O (configuration not stated)
6. Cc1ccc(CN2CCOCC2)cc1NC(=O)c1ccsc1

Result string:
52.98
21.24
46.32
-36.13
38.67
34.25

The following compounds each have a reported value; give each one's INHIBITION.
1. O=C(C1CCCCO1)N1CCc2ncnc(NCCO)c2CC1 (configuration not stated)
2. O=C(NCCn1ccnc1)N1CCN(Cc2cccnc2)CC1
3. COCCN1CCN(Cc2coc(-c3ccccc3Cl)n2)CC1
4. Cc1sc2nc(CCN)nc(N3CCN(S(C)(=O)=O)CC3)c2c1C
5. Cc1cc(C(=O)N2CCN(C(=O)CC(C)C)[C@@H]3CS(=O)(=O)C[C@@H]32)no1
6. COc1c(C2CCCN2C(=O)c2csc(C3CC3)n2)c(C)nn1C (configuration not stated)
7. Cc1cccc(NCC(=O)Nc2cc(F)ccc2F)c1C(N)=O

Result string:
1. 57.89
2. 58.96
3. 11.9
4. 20.77
5. -57.02
6. 15.13
7. 38.91

* * *

Would you mind telling me the reported INHIBITION of each entry?
Tested on: Plasmodium berghei
Test: Screen against P. berghei liver stage (PbLuc), transformed with Luciferase, at 2uM
Format: functional, HepG2
Conditions: tested at 2 uM
Among all 68,000 compounds or so, about 2,700 (4%) showed an effect of 50% or more. For the sample, strong results were picked, then their nearest neighbours and some compounds at random.
One number for each entry, in %.

Consider the following illustrative entries.
molecule	INHIBITION, %
Cn1cc(I)c(C(=O)NCCCn2cc(Br)cn2)n1	-6.71
CN(C)c1ccc(NC(=O)CN2CCS(=O)(=O)CC2)cn1	71.64

Query string: State its INHIBITION on Plasmodium berghei: c1ccc(-c2nc(CN3CCCC3Cn3cncn3)no2)cc1 (stereo not drawn)
Result string: -5.3

* * *

System: Plasmodium berghei
Assay: Screen against P. berghei liver stage (PbLuc), transformed with Luciferase, at 2uM
Type: functional, HepG2
Details: tested at 2 uM
The whole screen tested about 68,000 compounds, of which about 2,700 (4%) showed an effect of 50% or more. This is one part of a sample in which strong results are shown more often than they occur.
readout_kind: INHIBITION (%)
Answers are plain numbers, in %.

Consider the following illustrative entries.
compound	readout_kind	units_symbol	numeric_value
Cc1nc(C)n(CC2CCCCN2c2ccnc(-c3ccccc3)n2)n1 (stereo not given)	INHIBITION	%	-22.89
CCn1ccnc1CNCC(c1ccc(C)s1)N1CCOCC1 (stereo not given)	INHIBITION	%	76.65
Cc1nc(C)c(CC(=O)N2C[C@@H](C(=O)O)[C@H](c3ccccc3C)C2)s1	INHIBITION	%	-57.67
Cc1ccnn1CCC(=O)N1CCN(C2CCc3ccccc3C2)CC1 (stereo not given)	INHIBITION	%	14.13
Cc1cncc(C2CCCN(C(=O)c3cnco3)C2)n1 (stereo not given)	INHIBITION	%	-10.44
CSC1(CNC(=O)NCc2sccc2C)CCOCC1	INHIBITION	%	13.58

The following compounds each have a reported value; give each one's INHIBITION.
1. Cc1nc(C)c(CC(=O)N2C[C@H]3CC[C@@H](C2)N(CC2CC2)C3)s1
2. CCC(CO)N(Cc1ccco1)Cc1c(C)nn(C)c1Cl (stereo not given)
3. CCn1cnnc1CNC(=O)N1CCC(O)CC1
4. CCc1nc(C)c(C(=O)N(C)Cc2cnc3ccccn23)o1
5. CCC[C@@H]1CN(C(=O)Cc2sc(C)nc2C)C[C@H]1C(=O)O

Result string:
-38.36
-10.67
-0.05
52.81
53.55

Taken from ChEMBL document CHEMBL4513216.
